- EXPERIMENTAL SYSTEM: oxidized D63A (Penicillium oxalicum, UniProt A0A1B2TT15, D63A)
- Sequence (A0A1B2TT15 1-467, stated change not applied): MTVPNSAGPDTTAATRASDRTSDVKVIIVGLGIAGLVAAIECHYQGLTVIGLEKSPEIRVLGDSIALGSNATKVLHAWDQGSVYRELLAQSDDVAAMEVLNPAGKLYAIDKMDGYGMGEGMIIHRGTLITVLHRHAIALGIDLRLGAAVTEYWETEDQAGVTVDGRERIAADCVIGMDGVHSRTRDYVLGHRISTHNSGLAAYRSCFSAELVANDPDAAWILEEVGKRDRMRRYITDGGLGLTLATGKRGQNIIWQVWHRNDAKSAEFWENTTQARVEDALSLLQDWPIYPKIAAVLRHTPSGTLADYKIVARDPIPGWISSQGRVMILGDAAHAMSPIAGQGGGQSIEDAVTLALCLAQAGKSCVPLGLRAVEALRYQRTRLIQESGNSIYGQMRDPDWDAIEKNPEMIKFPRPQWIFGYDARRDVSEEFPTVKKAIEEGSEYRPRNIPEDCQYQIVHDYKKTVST
- APPLIED CONDITIONS: 15 μM oxidized D63A, roquefortine C 0–40 μM, pH 7.6; read-out: apparent KD
MEASUREMENT NAME: pKd
pKd is a log-scale quantity: -log10 of the concentration expressed in molar.

## Task Which pKd value is on record for "C=CC(C)(C)[C@@]12C[C@H]3C(=O)N/C(=C/c4c[nH]cn4)C(=O)N3[C@@H]1Nc1ccccc12" ?
## Result 5.19
